In this section, each of the binders is paired with its reported Kd.
ASSAY SYSTEM: human TGFßRII (antigen of the Octet experiments) (human, UniProt P37173 23-166)
Sequence (P37173 23-166): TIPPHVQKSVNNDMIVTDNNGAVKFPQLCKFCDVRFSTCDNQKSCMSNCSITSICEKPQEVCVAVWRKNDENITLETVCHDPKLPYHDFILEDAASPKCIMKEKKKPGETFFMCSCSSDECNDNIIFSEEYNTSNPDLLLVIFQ
TEST DESCRIPTION: BLI (Octet)
Please respond with the number in nM and leave the unit unwritten.

Known results for binders:
H1.37 L1 XENP34493 (antibody, V domains shown) VH: QLQVQESGPGLVKPSETLSLTCTVSGGSISNSYFSWGWVRQPPGKGLEWIGSFYYGEKTYYNPSLKSRATISIDTSKSQFSLKLSSVTAADTAVYYCPRGPTMIRGVIDSWGQGTLVTVSS VL: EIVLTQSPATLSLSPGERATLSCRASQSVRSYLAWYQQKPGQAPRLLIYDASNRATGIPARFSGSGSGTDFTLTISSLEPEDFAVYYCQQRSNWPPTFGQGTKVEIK: 0.391
H1.31 L1 XENP34487 (antibody, V domains shown) VH: QLQVQESGPGLVKPSETLSLTCTVSGGSISNSYFSIGWIRQPPGKGLEWIGSFYYGEKTYYNPSLKSRATISIDTSKSQFSLKLSSVTAADTAVYYCPRGPTMIRGVIDSWGQGTLVTVSS VL: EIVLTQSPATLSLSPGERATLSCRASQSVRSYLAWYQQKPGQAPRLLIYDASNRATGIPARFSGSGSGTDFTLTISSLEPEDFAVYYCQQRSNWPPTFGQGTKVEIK: 7.28
H1.9 L1 XENP34465 (antibody, V domains shown) VH: QLQVQESGPGLVKPSETLSLTCTVSGGSFSNSYFSWGWIRQPPGKGLEWIGSFYYGEKTYYNPSLKSRATISIDTSKSQFSLKLSSVTAADTAVYYCPRGPTMIRGVIDSWGQGTLVTVSS VL: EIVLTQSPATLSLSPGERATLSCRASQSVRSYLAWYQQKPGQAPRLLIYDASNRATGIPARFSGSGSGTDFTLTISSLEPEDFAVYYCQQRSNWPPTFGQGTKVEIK: 0.496
H1.4 L1 XENP34460 (antibody, V domains shown) VH: QLQLQESGPGLVKPSETLSLTCTVSGGSISNSYFSWGWIRQPPGKGLEWIGSFYYGEKTYYNPSLKSRATISIDTSKSQFSLKLSSVTAADTAVYYCPRGPTMIRGVIDSWGQGTLVTVSS VL: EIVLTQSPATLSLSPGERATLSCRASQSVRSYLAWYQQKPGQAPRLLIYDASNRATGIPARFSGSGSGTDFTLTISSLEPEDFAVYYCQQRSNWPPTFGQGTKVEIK: 0.128

Now for another entry.
For the binder H1.20 L1 XENP34476 (antibody, V domains shown) VH: QLQVQESGPGLVKPSETLSLTCTVSGGSISNTYFSWGWIRQPPGKGLEWIGSFYYGEKTYYNPSLKSRATISIDTSKSQFSLKLSSVTAADTAVYYCPRGPTMIRGVIDSWGQGTLVTVSS VL: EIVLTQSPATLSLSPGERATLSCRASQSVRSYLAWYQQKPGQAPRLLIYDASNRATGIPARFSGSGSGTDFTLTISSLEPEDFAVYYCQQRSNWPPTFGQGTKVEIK , what Kd is on record?
0.559
